Target Desc: human M2 receptor (Homo sapiens)
Sequence (P08172 whole entry): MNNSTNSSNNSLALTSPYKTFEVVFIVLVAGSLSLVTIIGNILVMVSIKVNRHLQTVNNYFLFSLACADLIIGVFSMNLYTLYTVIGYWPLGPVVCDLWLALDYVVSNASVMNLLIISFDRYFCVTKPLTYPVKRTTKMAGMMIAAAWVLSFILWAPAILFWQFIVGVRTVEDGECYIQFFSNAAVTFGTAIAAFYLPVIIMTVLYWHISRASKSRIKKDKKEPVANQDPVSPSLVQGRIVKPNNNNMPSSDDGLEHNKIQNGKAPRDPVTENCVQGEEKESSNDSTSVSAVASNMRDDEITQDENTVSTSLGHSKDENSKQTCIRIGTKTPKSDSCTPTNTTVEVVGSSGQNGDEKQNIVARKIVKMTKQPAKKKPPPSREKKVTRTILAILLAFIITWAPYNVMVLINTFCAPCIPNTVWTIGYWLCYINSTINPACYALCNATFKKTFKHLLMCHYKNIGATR
Assay Name: Functional M2-GIRK1/4 activation test: allosteric potency (EC50) and efficiency at EC20 acetylcholine
Cond: CHO-DUKX-M2-GIRK cells; voltage-sensitive dye; acetylcholine at EC20; in some cases mean of two or more determinations
Measurement Name: EC50 (nM)
Please respond with the number in nM and leave the unit unwritten.

EC50 in this record for CC[C@H](NC(=O)c1cn(-c2c(F)cc(F)cc2F)c2nc(N3C[C@@H](O)[C@H](OC(C)=O)C3)c(F)cc2c1=O)C(F)(F)F : 2.9

# EC50 (compound: C[C@@H](NC(=O)c1cn(-c2c(F)cc(F)cc2Cl)c2nc(N3C[C@@H](O)[C@H](O)C3)c(F)cc2c1=O)C(F)(F)F [Example 227] ) is 11

# compound O=C(Nc1c(Cl)cccc1Cl)c1cn(-c2ccc(F)cc2F)c2ncc(Cl)cc2c1=O ; its EC50 = 1600

response.value for O=C(N[C@@H](C1CC1)C(F)(F)F)c1cn(-c2c(F)cc(F)cc2F)c2nc(N3C[C@@H](O)[C@H](O)C3)c(F)cc2c1=O (field: EC50) = 5.64

Given item CC(C)(C)C(NC(=O)c1cn(-c2c(F)cc(F)cc2F)c2nc(N3CC4(COC4)C3)c(F)cc2c1=O)C(F)(F)C(F)(F)F (single isomer, unassigned) [Example 215] , the value recorded as its EC50 is 8.6

Summary for this compound, CC(C)(C)C(NC(=O)c1cn(-c2c(F)cc(F)cc2F)c2nc(N3CC(CO)(CO)C3)c(F)cc2c1=O)C(F)(F)C(F)(F)F (single isomer, unassigned) [Example 214] : EC50 is 2.1

# EC50 (compound: CC(NC(=O)c1cn(-c2c(F)cc(F)cc2F)c2nc(N3CCC(O)C(O)C3)c(F)cc2c1=O)C(F)(F)C(F)(F)F (single isomer, unassigned) [Example 182] ) is 8.8

Record CC[C@@H](NC(=O)c1cn(-c2c(F)cc(F)cc2F)c2nc(N3C[C@H](O)[C@@H](O)C3)c(F)cc2c1=O)C(F)(F)F , field EC50: 11

Looking up CC[C@H](NC(=O)c1cn(-c2c(F)cc(F)cc2Cl)c2nc(N3C[C@@H](O)[C@H](O)C3)c(F)cc2c1=O)C(F)(F)F [Example 40] , I see its EC50 listed as 2.3

The recorded EC50 for entry CCC(C)(C)NC(=O)c1cn(-c2c(F)cc(F)cc2F)c2nc(N3C[C@@H](O)[C@@H](O)C3)c(F)cc2c1=O equals 9.3

Form: compound = CC(C)C(NC(=O)c1cn(-c2c(F)cc(F)cc2Cl)c2nc(N3C[C@@H](O)[C@H](O)C3)c(F)cc2c1=O)C(F)(F)F (stereo partly drawn) ; EC50 = 2.8

// EC50 lookup, compound = O=C(NC(C(F)(F)F)C(F)(F)F)c1cn(-c2c(F)cc(F)cc2F)c2nc(N3C[C@@H](O)[C@H](O)C3)c(F)cc2c1=O , result: 4.5
